System: female stress-derived axillary odor
Protocol Notes: Cross-adaptation of female stress-derived axillary odor (odor panel, magnitude estimation of perceived intensity); further: key: best: Best = Superior Cross-Adaptation; good: Good = Adequate Cross-Adaptation; poor: Poor = Ineffective Cross-Adaptation
Type: in vivo, human
Assay Setup: female stress-derived odor perceived by women
Readout: Magnitude of Reduction of Intensity of Female Stress-Derived Odor (FSDO), Females

{"Molecule": "CC(C)(O)CCCC1=CCC(C=O)CC1 (stereo not shown)", "Test Value": "poor"}
{"Molecule": "CCOc1cc(C=O)ccc1O [Ethyl Vanillin, 3-Ethoxy-4-hydroxybenzaldehyde]", "Test Value": "poor"}
{"Molecule": "CCCCCC(C)=CC(=O)OCC (single isomer, unassigned) [E-, Z-isomers (3:1) of 3-methyl-2-octenoic acid ethyl esters, 3-methyl-2-octenoic acid ethyl esters]", "Test Value": "best"}
{"Molecule": "COc1ccc(C=O)cc1", "Test Value": "good"}
{"Molecule": "CCCCCCC(C=O)=Cc1ccccc1", "Test Value": "poor"}
{"Molecule": "Cc1cccc(CC(C)(C)CO)c1", "Test Value": "poor"}
{"Molecule": "CC1CC(C)(c2ccccc2)OC(C)O1 (stereo not shown)", "Test Value": "best"}
{"Molecule": "CC1=CC(C)C(C=O)CC1 (stereo not shown)", "Test Value": "best"}
{"Molecule": "CO[C@]1(C)CC[C@@]23C[C@@H]1C(C)(C)[C@@H]2CC[C@H]3C", "Test Value": "good"}
{"Molecule": "CCCCCCCC1CCC(=O)O1 (stereo not shown)", "Test Value": "good"}
{"Molecule": "O=C1CCCCCCCCCCCCCCO1", "Test Value": "good"}
{"Molecule": "C=CC(C)CCCC(C)(C)O (stereo not shown) [Dihydromyrcenol, 2,6-dimethyl-7-octen-2-ol]", "Test Value": "good"}
{"Molecule": "CCCCCC1C(=O)CCC1CC(=O)OC (stereo not shown) [HEDIONE ®, methyl dihydro jasmonate]", "Test Value": "poor"}
